Answer each item with its documented IC50.
- Test system: A549
- METHOD_SUMMARY: Antiproliferative activity against human A549 cells […] by microculture tetrazolium assay
- Assay type: functional, cell-based
Give bare numbers, in µM.

Please review the following examples before continuing.
So what's the measured IC50 for this one? O=C1NC(=O)c2c1c1c3cc(OCc4ccccc4)ccc3[nH]c1c1cccn21
23.2

Same again, this time with CN1C(=O)c2c(n3cncc3c3c2c2cccnc2n3[C@@H]2O[C@H](CO)[C@@H](O)[C@H](O)[C@H]2O)C1=O
78.5

Same again, this time with O=C1NC(=O)c2c1c1c3cc(Cl)ccc3[nH]c1c1cccn21
28.9

Same again, this time with CN1C(=O)c2c(n3ccnc3c3[nH]c4ncccc4c23)C1=O
35.6

Same again, this time with O=C1NC(=O)c2c1c1c3cccnc3[nH]c1c1cccn21
19.7

Would you mind listing IC50 for each of the following compounds?
1. CN1C(=O)c2c(n3cccc3c3[nH]c4ccc(Cl)cc4c23)C1=O
2. CN1C(=O)c2c(c3c4ccccc4[nH]c3c3cc[nH]c23)C1=O
3. CN1C(=O)c2c(n3cncc3c3[nH]c4ncccc4c23)C1=O
4. O=C1NC(=O)c2c1c1c3ccccc3[nH]c1n1cncc21 [ISOGRANULATIMIDE]
5. O=C1NC(=O)c2c1c1c3cc(Br)ccc3[nH]c1c1cccn21

1. 68.3
2. 47.1
3. 7.4
4. 18.1
5. 20.9

----------
- SYSTEM_UNDER_TEST: Serine/threonine-protein kinase Chk1 (Homo sapiens)
- Sequence (whole entry): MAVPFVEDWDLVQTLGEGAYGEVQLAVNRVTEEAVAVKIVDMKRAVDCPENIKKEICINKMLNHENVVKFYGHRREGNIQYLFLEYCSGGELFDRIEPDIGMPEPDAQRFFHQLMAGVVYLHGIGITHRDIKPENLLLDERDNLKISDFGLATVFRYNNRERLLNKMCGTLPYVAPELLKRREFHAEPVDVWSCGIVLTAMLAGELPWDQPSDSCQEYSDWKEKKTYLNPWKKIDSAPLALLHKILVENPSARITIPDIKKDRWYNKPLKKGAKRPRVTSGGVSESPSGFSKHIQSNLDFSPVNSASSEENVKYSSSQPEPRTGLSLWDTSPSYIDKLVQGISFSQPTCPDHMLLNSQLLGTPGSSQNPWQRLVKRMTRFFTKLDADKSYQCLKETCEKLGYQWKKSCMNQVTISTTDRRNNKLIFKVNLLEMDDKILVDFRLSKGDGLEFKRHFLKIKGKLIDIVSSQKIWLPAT
- METHOD_SUMMARY: Inhibition of human Chk1 at 10 uM
Answer each item with its documented inhibition.
Numbers only, in %.

So what's the measured inhibition for this one? O=C1NC(=O)c2c1c1c3ccccc3[nH]c1c1cccn21
85

Same again, this time with CN1C(=O)c2c(n3cccc3c3[nH]c4ccc(Br)cc4c23)C1=O
7.1

Same again, this time with CN1C(=O)c2c(n3cccc3c3[nH]c4ccc(OCc5ccccc5)cc4c23)C1=O
10.3

Same again, this time with O=C1NC(=O)c2c1c1c3cc(OCc4ccccc4)ccc3[nH]c1c1cccn21
54.8

---
So what's the measured inhibition for this one? O=C1NC(=O)c2c1c1c3cc(O)ccc3[nH]c1c1cccn21
95.8

----------
- SYSTEM_UNDER_TEST: DNA topoisomerase 1 (Homo sapiens) (UniProt P11387)
- Sequence (whole entry): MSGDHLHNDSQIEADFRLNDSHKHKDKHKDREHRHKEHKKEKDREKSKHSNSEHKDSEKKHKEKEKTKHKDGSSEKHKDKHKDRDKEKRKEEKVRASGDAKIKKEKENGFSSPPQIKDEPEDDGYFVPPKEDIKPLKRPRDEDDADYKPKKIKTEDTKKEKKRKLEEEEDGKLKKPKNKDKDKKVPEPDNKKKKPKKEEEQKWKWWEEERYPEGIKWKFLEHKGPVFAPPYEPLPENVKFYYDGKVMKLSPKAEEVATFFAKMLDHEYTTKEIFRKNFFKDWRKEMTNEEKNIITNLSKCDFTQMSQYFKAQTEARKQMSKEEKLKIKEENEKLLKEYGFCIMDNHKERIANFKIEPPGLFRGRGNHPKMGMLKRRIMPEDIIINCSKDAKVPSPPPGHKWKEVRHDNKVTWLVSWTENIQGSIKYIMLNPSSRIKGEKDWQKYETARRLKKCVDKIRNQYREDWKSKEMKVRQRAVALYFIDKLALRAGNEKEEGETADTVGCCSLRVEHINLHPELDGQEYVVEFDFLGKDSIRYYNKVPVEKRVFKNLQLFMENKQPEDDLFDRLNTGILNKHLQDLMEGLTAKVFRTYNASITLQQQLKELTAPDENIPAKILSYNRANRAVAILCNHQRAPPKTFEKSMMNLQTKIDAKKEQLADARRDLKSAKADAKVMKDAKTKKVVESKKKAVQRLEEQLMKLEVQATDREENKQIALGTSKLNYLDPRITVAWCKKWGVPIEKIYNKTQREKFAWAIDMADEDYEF
- METHOD_SUMMARY: Inhibition of topoisomerase 1
Active and inactive are the calls of the source. No cut-off for these calls is given here.
METRIC_NAME: Activity

Please review the following examples before continuing.
Missing value: Activity, DNA topoisomerase 1 (Homo sapiens) (UniProt P11387), entry O=C1NC(=O)c2c1c1c3ccccc3[nH]c1c1cccn21 . Fill in?
inactive

Same again, this time with CN1C(=O)c2c(n3cccc3c3[nH]c4ccc(OCc5ccccc5)cc4c23)C1=O
inactive

Same again, this time with O=C1NC(=O)c2c1c1c3cc(Cl)ccc3[nH]c1c1cccn21
inactive

Same again, this time with CN1C(=O)c2c(n3cccc3c3[nH]c4ccc(Cl)cc4c23)C1=O
inactive

Would you mind listing Activity for each of the following compounds?
1. CN1C(=O)c2c(n3ccnc3c3c2c2cccnc2n3[C@@H]2O[C@H](CO)[C@@H](O)[C@H](O)[C@H]2O)C1=O
2. CN1C(=O)c2c(n3cccc3c3[nH]c4ccccc4c23)C1=O
3. CN1C(=O)c2c(n3ccnc3c3[nH]c4ncccc4c23)C1=O
4. CN1C(=O)c2c(c3c4ccccc4[nH]c3c3cc[nH]c23)C1=O

1: inactive; 2: inactive; 3: inactive; 4: inactive

----------
- SYSTEM_UNDER_TEST: DNA topoisomerase 1 (Homo sapiens) (UniProt P11387)
- Sequence (whole entry): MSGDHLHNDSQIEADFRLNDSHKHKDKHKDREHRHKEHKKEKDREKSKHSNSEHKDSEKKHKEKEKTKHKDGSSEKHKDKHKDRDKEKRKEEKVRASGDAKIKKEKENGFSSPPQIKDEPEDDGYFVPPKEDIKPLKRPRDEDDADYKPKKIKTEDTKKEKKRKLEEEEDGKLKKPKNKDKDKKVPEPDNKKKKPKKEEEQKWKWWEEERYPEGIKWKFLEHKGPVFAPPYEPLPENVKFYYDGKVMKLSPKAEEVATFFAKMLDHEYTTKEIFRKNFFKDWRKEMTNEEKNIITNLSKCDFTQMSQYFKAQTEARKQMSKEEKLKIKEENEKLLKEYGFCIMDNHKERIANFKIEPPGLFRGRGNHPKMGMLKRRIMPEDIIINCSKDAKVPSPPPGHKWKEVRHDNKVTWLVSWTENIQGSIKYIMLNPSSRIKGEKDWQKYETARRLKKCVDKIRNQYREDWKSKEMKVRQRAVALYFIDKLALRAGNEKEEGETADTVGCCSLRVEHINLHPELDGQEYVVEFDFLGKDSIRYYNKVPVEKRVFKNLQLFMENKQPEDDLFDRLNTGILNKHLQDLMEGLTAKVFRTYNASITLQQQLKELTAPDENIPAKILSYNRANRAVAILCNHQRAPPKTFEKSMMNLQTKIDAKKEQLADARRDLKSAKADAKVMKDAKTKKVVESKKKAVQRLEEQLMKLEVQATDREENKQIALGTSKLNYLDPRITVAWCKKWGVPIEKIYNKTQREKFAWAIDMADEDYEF
- METHOD_SUMMARY: Inhibition of topoisomerase 1 upto 50 uM
Calls of active or inactive are those of the source. The rule behind the calls is not given here.
METRIC_NAME: Activity

So what's the measured Activity for this one? O=C1NC(=O)c2c1c1c3cc(Cl)ccc3[nH]c1c1cccn21
inactive

Same again, this time with CN1C(=O)c2c(n3cccc3c3[nH]c4ccc(Cl)cc4c23)C1=O
inactive

Same again, this time with CN1C(=O)c2c(c3c4ccccc4[nH]c3c3cc[nH]c23)C1=O
inactive

----------
- Test system: HT-29
- METHOD_SUMMARY: Antiproliferative activity against human HT29 cells […] by microculture tetrazolium assay
- Format: functional, cell-based
METRIC_NAME: IC50

Please review the following examples before continuing.
So what's the measured IC50 for this one? O=C1NC(=O)c2c1c1c3ccccc3[nH]c1c1cccn21
3.3 µM

Same again, this time with O=C1NC(=O)c2c1c1c3cccnc3[nH]c1c1cccn21
17.1 µM

Same again, this time with CN1C(=O)c2c(n3cccc3c3[nH]c4ccc(Br)cc4c23)C1=O
88.3 µM

Same again, this time with O=C1NC(=O)c2c1c1c3cc(O)ccc3[nH]c1c1cccn21
27.8 µM

Same again, this time with O=C1NC(=O)c2c1c1c3cc(Br)ccc3[nH]c1c1cccn21
29 µM

Same again, this time with CN1C(=O)c2c(n3cccc3c3[nH]c4ccc(Cl)cc4c23)C1=O
63.2 µM

Same again, this time with O=C1NC(=O)c2c1c1c3cc(Cl)ccc3[nH]c1c1cccn21
30.4 µM

Same again, this time with CN1C(=O)c2c(n3cccc3c3[nH]c4ccc(O)cc4c23)C1=O
26.5 µM

Would you mind listing IC50 for each of the following compounds?
1. CN1C(=O)c2c(n3cncc3c3c2c2cccnc2n3[C@@H]2O[C@H](CO)[C@@H](O)[C@H](O)[C@H]2O)C1=O
2. CN1C(=O)c2c(n3cccc3c3[nH]c4ccc(OCc5ccccc5)cc4c23)C1=O
3. CN1C(=O)c2c(n3ccnc3c3c2c2cccnc2n3[C@@H]2O[C@H](CO)[C@@H](O)[C@H](O)[C@H]2O)C1=O

52.5 µM
35.9 µM
53 µM

Would you mind listing IC50 for each of the following compounds?
1. CN1C(=O)c2c(c3c4ccccc4[nH]c3c3cc[nH]c23)C1=O
2. O=C1NC(=O)c2c1c1c3cc(OCc4ccccc4)ccc3[nH]c1c1cccn21
3. CN1C(=O)c2c(n3cncc3c3[nH]c4ncccc4c23)C1=O
4. CN1C(=O)c2c(n3ccnc3c3[nH]c4ncccc4c23)C1=O
5. CN1C(=O)c2c(n3cccc3c3[nH]c4ccccc4c23)C1=O

1: 5.9 µM; 2: 13.7 µM; 3: 9.7 µM; 4: 30.6 µM; 5: > 100 µM
